Field: Cmax. Provide a value for each of the compounds that follow.
Assay: Cmax in Sprague-Dawley rat at 3 mg/kg, po measured upto 24 hrs by HPLC-MS analysis
Format: ADME, organism-based
Design: dose 3 mg/kg, time < 24 hrs, route po
Conditions: in vivo

input: Query Cmax for `C[C@@H]1COCCN1c1cc(N2CCOC[C@@H]2C)nc2[nH]c(-c3cscn3)nc12`
output: 1.73 µM

input: Query Cmax for `C[C@@H]1COCCN1c1cc(N2CCOC[C@@H]2C)nc2[nH]c(-c3ccccn3)nc12`
output: 5.05 µM

---

Test: Drug concentration in C57BL/6 mouse plasma at 3 mg/kg, po measured after 8 hrs
Assay type: ADME, organism-based
measuredProperty: concentration at 8 h (nM)
Provide the reading as a plain figure in nM.

input: Query concentration at 8 h for `C[C@@H]1COCCN1c1cc(N2CCOC[C@@H]2C)nc2[nH]c(-c3cscn3)nc12`
output: 1190

---

Biological target: Phosphatidylinositol 4,5-bisphosphate 3-kinase catalytic subunit alpha isoform (Homo sapiens, UniProt P42336)
Sequence (P42336 whole entry, canonical isoform): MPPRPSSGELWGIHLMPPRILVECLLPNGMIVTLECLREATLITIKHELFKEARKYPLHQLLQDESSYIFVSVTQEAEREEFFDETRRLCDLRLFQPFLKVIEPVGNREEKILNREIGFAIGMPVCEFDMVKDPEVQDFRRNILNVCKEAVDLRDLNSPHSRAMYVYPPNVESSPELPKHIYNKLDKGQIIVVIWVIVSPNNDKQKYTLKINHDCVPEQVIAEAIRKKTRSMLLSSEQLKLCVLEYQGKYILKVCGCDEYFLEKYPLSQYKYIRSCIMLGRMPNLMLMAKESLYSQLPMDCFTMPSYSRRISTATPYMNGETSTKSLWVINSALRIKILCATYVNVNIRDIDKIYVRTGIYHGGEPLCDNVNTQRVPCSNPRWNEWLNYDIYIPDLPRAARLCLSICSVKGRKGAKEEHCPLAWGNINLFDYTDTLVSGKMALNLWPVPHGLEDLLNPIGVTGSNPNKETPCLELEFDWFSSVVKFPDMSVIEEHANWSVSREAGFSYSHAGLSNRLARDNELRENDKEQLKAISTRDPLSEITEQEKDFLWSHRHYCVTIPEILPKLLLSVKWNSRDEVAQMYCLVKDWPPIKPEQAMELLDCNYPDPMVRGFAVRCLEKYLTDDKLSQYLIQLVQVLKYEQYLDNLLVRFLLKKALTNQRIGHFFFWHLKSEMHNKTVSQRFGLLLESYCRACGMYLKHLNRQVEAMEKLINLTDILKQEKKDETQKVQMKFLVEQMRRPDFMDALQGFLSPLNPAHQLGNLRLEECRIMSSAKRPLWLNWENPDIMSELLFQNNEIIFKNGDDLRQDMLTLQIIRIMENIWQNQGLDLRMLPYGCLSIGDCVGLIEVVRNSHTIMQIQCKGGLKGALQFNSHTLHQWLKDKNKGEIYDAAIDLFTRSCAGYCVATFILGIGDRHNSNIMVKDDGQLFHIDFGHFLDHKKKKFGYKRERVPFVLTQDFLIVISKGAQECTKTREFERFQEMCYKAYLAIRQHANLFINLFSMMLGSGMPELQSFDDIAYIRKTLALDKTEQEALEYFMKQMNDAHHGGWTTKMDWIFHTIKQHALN
Assay: Inhibition of PI3Kalpha (unknown origin)
measuredProperty: IC50

input: Query IC50 for `C[C@@H]1COCCN1c1cc(N2CCOC[C@@H]2C)nc2[nH]c(-c3ccccn3)nc12`
output: > 10 µM

input: Query IC50 for `C[C@@H]1COCCN1c1cc(N2CCOC[C@@H]2C)nc2[nH]c(-c3cscn3)nc12`
output: > 10 µM

---

Test: Drug concentration in C57BL/6 mouse plasma at 1 mg/kg, po measured after 8 hrs
Type: ADME, organism-based
measuredProperty: concentration at 8 h (nM)
Provide the reading as a plain figure in nM.

input: Query concentration at 8 h for `C[C@@H]1COCCN1c1cc(N2CCOC[C@@H]2C)nc2[nH]c(-c3cscn3)nc12`
output: 246

---

Target: CYP2D6 (Homo sapiens)
Sequence (P10635 whole entry): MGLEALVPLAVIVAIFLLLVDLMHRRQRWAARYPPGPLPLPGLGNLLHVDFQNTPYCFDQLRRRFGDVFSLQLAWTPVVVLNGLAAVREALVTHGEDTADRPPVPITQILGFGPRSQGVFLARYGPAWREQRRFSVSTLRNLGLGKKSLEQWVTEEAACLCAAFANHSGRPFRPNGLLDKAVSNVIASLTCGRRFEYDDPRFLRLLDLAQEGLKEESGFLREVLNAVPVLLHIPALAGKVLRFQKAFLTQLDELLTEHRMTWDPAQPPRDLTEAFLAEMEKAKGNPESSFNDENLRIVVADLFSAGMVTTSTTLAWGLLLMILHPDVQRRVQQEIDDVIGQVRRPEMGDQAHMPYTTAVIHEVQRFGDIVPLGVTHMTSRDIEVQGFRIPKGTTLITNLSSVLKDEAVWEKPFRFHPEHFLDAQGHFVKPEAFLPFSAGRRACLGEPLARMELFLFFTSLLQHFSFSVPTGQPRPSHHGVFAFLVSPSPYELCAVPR
Experiment: Inhibition of CYP2D6 (unknown origin)
Format: ADME
measuredProperty: IC50

input: Query IC50 for `C[C@@H]1COCCN1c1nc(N2CCOC[C@@H]2C)nc2sc(-c3cc[nH]n3)nc12`
output: > 50 µM

---

Field: half-life. Provide a value for each of the compounds that follow.
Assay: Half life in Sprague-Dawley rat at 3 mg/kg, po and 1 mg/kg, iv measured upto 24 hrs by HPLC-MS analysis
Assay type: ADME, organism-based
Details: in vivo
Provide the reading as a plain figure in h.

input: Query half-life for `C[C@@H]1COCCN1c1cc(N2CCOC[C@@H]2C)nc2[nH]c(-c3ccccn3)nc12`
output: 2.6

input: Query half-life for `C[C@@H]1COCCN1c1cc(N2CCOC[C@@H]2C)nc2[nH]c(-c3cscn3)nc12`
output: 3

---

Test: Ratio of drug concentration in brain to plasma in C57BL/6 mouse at 30 mg/kg, po measured at 8 hrs
Type: ADME, organism-based
Conditions: read-out: BPR
measuredProperty: Kp at 8 h
Please state the value as a number alone, without comment.

input: Query Kp at 8 h for `C[C@@H]1COCCN1c1cc(N2CCOC[C@@H]2C)nc2[nH]c(-c3cscn3)nc12`
output: 0.73

---

Assay: Half life in cynomolgus monkey at 1 mg/kg, po and 0.1 mg/kg, iv measured upto 24 hrs by LC/MS/MS analysis
Assay type: ADME, organism-based, Macaca fascicularis
Conditions: in vivo
measuredProperty: half-life (min)
Provide the reading as a plain figure in min.

input: Query half-life for `C[C@@H]1COCCN1c1cc(N2CCOC[C@@H]2C)nc2[nH]c(-c3cscn3)nc12`
output: 300

---

Field: concentration at 24 h. Provide a value for each of the compounds that follow.
Experiment: Drug concentration in C57BL/6 mouse brain at 30 mg/kg, po measured after 24 hrs
Type: ADME, organism-based
Settings: read-out: Ct
Provide the reading as a plain figure in µM.

input: Query concentration at 24 h for `C[C@@H]1COCCN1c1cc(N2CCOC[C@@H]2C)nc2[nH]c(-c3cscn3)nc12`
output: 4.65

input: Query concentration at 24 h for `C[C@@H]1COCCN1c1cc(N2CCOC[C@@H]2C)nc2[nH]c(-c3ccccn3)nc12`
output: 0.79

---

Assay: Cmax in cynomolgus monkey at 1 mg/kg, po measured upto 24 hrs by LC/MS/MS analysis
Type: ADME, organism-based, Macaca fascicularis
Design: time < 24 hrs, dose 1 mg/kg, route po
Conditions: in vivo
measuredProperty: Cmax

input: Query Cmax for `C[C@@H]1COCCN1c1cc(N2CCOC[C@@H]2C)nc2[nH]c(-c3cscn3)nc12`
output: 0.468 µM

---

Experiment: Clearance in C57BL/6 mouse at 1 mg/kg, iv and 3 mg/kg, ip measured upto 24 hrs by HPLC-MS analysis
Format: ADME, organism-based
Settings: in vivo
measuredProperty: clearance (mL/min/kg)
Provide the reading as a plain figure in mL/min/kg.

input: Query clearance for `C[C@@H]1COCCN1c1cc(N2CCOC[C@@H]2C)nc2[nH]c(-c3ccccn3)nc12`
output: 19

---

Assay: Ratio of drug concentration in brain to plasma in Sprague-Dawley rat at 1 mg/kg, iv measured at 1 hr by HPLC-MS analysis
Type: ADME, organism-based
Details: brain and plasma, read-out: BPR
Field: Kp at 1 h. Provide a value for each of the molecules that follow.
Please state the value as a number alone, without comment.

input: Query Kp at 1 h for `C[C@@H]1COCCN1c1cc(N2CCOC[C@@H]2C)nc2[nH]c(-c3ccccn3)nc12`
output: 0.48

input: Query Kp at 1 h for `C[C@@H]1COCCN1c1cc(N2CCOC[C@@H]2C)nc2[nH]c(-c3cscn3)nc12`
output: 0.35

---

Experiment: Bioavailability in Beagle dog at 1 mg/kg, po and 0.3 mg/kg, iv measured upto 24 hrs by LC/MS/MS analysis
Format: ADME, organism-based, Canis lupus familiaris
Conditions: in vivo
measuredProperty: bioavailability (%)
Provide the reading as a plain figure in %.

input: Query bioavailability for `C[C@@H]1COCCN1c1cc(N2CCOC[C@@H]2C)nc2[nH]c(-c3ccccn3)nc12`
output: 11

---

Assay: AUC(0 to t) in Beagle dog at 1 mg/kg, po measured upto 24 hrs by LC/MS/MS analysis
Format: ADME, organism-based, Canis lupus familiaris
Parameters: time < 24 hrs, dose 1 mg/kg, route po
Details: in vivo
measuredProperty: AUC(0-t) at 24 h (µM·h)
Provide the reading as a plain figure in µM·h.

input: Query AUC(0-t) at 24 h for `C[C@@H]1COCCN1c1cc(N2CCOC[C@@H]2C)nc2[nH]c(-c3ccccn3)nc12`
output: 0.056

---

Field: Tmax. Provide a value for each of the molecules that follow.
Test: Tmax in Sprague-Dawley rat at 3 mg/kg, po and 1 mg/kg, iv measured upto 24 hrs by HPLC-MS analysis
Assay type: ADME, organism-based
Conditions: in vivo
Provide the reading as a plain figure in h.

input: Query Tmax for `C[C@@H]1COCCN1c1cc(N2CCOC[C@@H]2C)nc2[nH]c(-c3cscn3)nc12`
output: 1.5

input: Query Tmax for `C[C@@H]1COCCN1c1cc(N2CCOC[C@@H]2C)nc2[nH]c(-c3ccccn3)nc12`
output: 1.3

---

Experiment: Metabolic stability in mouse liver microsomes assessed as intrinsic clearance at 1 uM incubated for 30 mins in presence of NADPH by LC-MS/MS analysis
Format: ADME, Microsome
Settings: read-out: CLH
measuredProperty: microsomal CLint at 1 µM
Write the numeric value and follow it with the unit.

input: Query microsomal CLint at 1 µM for `C[C@@H]1COCCN1c1nc(N2CCOC[C@@H]2C)nc2sc(-c3cc[nH]n3)nc12`
output: 22 µL/min/mg

input: Query microsomal CLint at 1 µM for `C[C@@H]1COCCN1c1cc(N2CCOC[C@@H]2C)nc2[nH]c(-c3cscn3)nc12`
output: 13 µL/min/mg

input: Query microsomal CLint at 1 µM for `C[C@@H]1COCCN1c1cc(N2CCOC[C@@H]2C)nc2[nH]c(-c3ccccn3)nc12`
output: 24 µL/min/mg

---

Assay: Ratio of drug concentration in brain to plasma in C57BL/6 mouse at 3 mg/kg, po measured at 8 hrs
Type: ADME, organism-based
Settings: read-out: BPR
measuredProperty: Kp at 8 h
Please state the value as a number alone, without comment.

input: Query Kp at 8 h for `C[C@@H]1COCCN1c1cc(N2CCOC[C@@H]2C)nc2[nH]c(-c3cscn3)nc12`
output: 0.29

---

Experiment: Ratio of drug concentration in brain to plasma in C57BL/6 mouse at 3 mg/kg, po measured at 1 hr
Format: ADME, organism-based
Conditions: read-out: BPR
measuredProperty: Kp at 1 h
Please state the value as a number alone, without comment.

input: Query Kp at 1 h for `C[C@@H]1COCCN1c1cc(N2CCOC[C@@H]2C)nc2[nH]c(-c3cscn3)nc12`
output: 0.51

The origin of these recorded values is ChEMBL document CHEMBL5331134.
